Data origin, for the record: patent US11999732B2

Molecular target: human P2X3 receptor (Homo sapiens, UniProt P56373)
Construct: expressed in transfected cells; host or cells: CHO-K1
Sequence (P56373 1-397): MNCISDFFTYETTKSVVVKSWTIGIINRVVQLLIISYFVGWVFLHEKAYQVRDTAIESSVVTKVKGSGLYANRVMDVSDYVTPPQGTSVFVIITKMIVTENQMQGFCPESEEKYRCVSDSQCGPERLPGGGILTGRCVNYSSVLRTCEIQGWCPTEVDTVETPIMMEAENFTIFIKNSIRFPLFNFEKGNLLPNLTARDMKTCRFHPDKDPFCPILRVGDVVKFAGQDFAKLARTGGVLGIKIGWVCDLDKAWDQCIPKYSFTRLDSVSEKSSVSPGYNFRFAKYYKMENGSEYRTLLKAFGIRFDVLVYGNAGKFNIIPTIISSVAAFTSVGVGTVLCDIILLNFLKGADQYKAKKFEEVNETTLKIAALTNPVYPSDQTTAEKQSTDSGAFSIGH
Assay: Calcium luminescence (photoprotein) assay in CHO-K1 cells co-expressing human P2X3 receptor, α,β-Met-ATP stimulation, FLEXSTATION readout
Type: cell-based
Settings: Table 8; human P2X3 receptor antagonist activity, CHO-K1 cells, α,β-Met-ATP; read-out: h-P2X3 IC50
Measure: IC50 (nM)
// return numeric value only (unit: nM, not printed)

Find IC50 (human P2X3 receptor (Homo sapiens, UniProt P56373)) for the entry Cc1ccc(Cc2nn3c(CC4CCCCC4)nnc3c3ncccc23)cc1
1790

Find IC50 (human P2X3 receptor (Homo sapiens, UniProt P56373)) for the entry CC(C)(C)c1nnc2c3ncc(N4CCC(O)CC4)cc3c(Cc3ccc(Cl)cc3)nn12
309

Find IC50 (human P2X3 receptor (Homo sapiens, UniProt P56373)) for the entry COc1ccc(Cc2nn3c(C(C)(C)C)nnc3c3ncc(N4CCOCC4)cc23)cc1
246

Find IC50 (human P2X3 receptor (Homo sapiens, UniProt P56373)) for the entry C=C(C)c1nnc2c3ncc(N4CCOCC4)cc3c(Cc3cc(OC)cc(OC)c3)nn12
544

Find IC50 (human P2X3 receptor (Homo sapiens, UniProt P56373)) for the entry CC(c1nnc2c3ncc(N4CCOCC4)cc3c(Cc3ccc(Cl)cc3)nn12)C1CCOCC1 (centres unmarked)
19.1

Find IC50 (human P2X3 receptor (Homo sapiens, UniProt P56373)) for the entry COCCNc1cnc2c(c1)c(Cc1cc(OC)cc(OC)c1)nn1c(CC(C)C)nnc21
1050

Find IC50 (human P2X3 receptor (Homo sapiens, UniProt P56373)) for the entry COCC1CN(c2cnc3c(c2)c(Cc2ccc(Cl)cc2)nn2c(CC(C)C)nnc32)C1
576

Find IC50 (human P2X3 receptor (Homo sapiens, UniProt P56373)) for the entry CC(C)(C)c1nnc2c3ncc(N4CCOCC4)cc3c(Cc3ccc(Cl)cc3)nn12
102
